# assayed.system: GDP-bound KRAS protein (aa 1-169), containing both G12D and C118A amino acid substitutions (Homo sapiens (Human), UniProt P01116, C118A/G12D)
# Sequence (P01116 other isoform, or with tags, fused parts or gaps G12D/C118A): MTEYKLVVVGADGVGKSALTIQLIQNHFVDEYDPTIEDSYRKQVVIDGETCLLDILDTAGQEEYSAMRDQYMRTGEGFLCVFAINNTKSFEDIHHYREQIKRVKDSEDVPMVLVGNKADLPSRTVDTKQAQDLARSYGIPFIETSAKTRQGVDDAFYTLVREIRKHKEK
# method: KRAS G12D Coupled Nucleotide Exchange Assay
# Type: biochemical
# measurement.setup: read-out: KRAS G12D Coupled Exchange IC50
Where a name gives a salt, the structure may show the parent alone.
Assignment: determine reported IC50 for the given molecules.
Unit nM implied. Number only.

Prompt: Entry Fc1c2ncc3c(nc(OC[C@@]45CCCN4C[C@H](F)C5)nc13)N1CCC[C@H](C1)c1noc(n1)CCCc1c(Cl)cc3[nH]ncc3c1-2 has what IC50?
Response: 5

Prompt: Also need Fc1c2ncc3c(nc(OC[C@@]45CCCN4C[C@H](F)C5)nc13)N1CCO[C@@H](COCC(F)(F)CCc3c(Cl)cc4[nH]ncc4c3-2)C1 , thanks.
Response: 17

Prompt: Also need O=C1OCCCc2c(Cl)cc3[nH]ncc3c2-c2ncc3c(nc(OC[C@H]4CC[C@@H]5COCCN54)nc3c2F)N2CCOC[C@H](C2)O1 , thanks.
Response: 5

Prompt: Also need CN1C(=O)CC[C@@H]2C[C@@H]2c2c(Cl)cc3[nH]ncc3c2-c2ncc3c(nc(OC[C@@]45CCCN4C[C@H](F)C5)nc3c2F)N2CCC[C@@H]1C2 [Example 128, bis (2,2,2-trifluoroacetate)] , thanks.
Response: 46

Prompt: Also need C[C@@]12CCCN(C1)c1nc(OC[C@@]34CCCN3C[C@H](F)C4)nc3c(F)c(ncc13)-c1cc(O)cc3cccc(c13)CCCCC(=O)N2 [Example 8, (2,2,2-trifluoroacetate) salt] , thanks.
Response: 6

====

# assayed.system: GDP-bound KRAS protein (aa 1-169), containing both G12D and C118A amino acid substitutions (Homo sapiens (Human), UniProt P01116, C118A/G12D)
# method: KRAS G12D Coupled Nucleotide Exchange Assay
# Type: biochemical
# measurement.setup: 2 hours compound pre-incubation; read-out: KRAS G12D Coupled Exchange
value.type: IC50 (nM)
Unit nM implied. Number only.

Prompt: Entry CN(C)CC1(COc2nc3c4cnc(c(F)c4n2)-c2c(c(Cl)cc4[nH]ncc24)CCCCOCC2(F)CCCCN3C2)CC1 (stereo in doubt) [Example 401] has what IC50?
Response: 3

Prompt: Also need Fc1c2ncc3c(nc(OC[C@@]45CCCN4C[C@H](F)C5)nc13)N1CCO[C@@H](COCC[C@@H]3C[C@@H]3c3c(Cl)cc4[nH]ncc4c3-2)C1 [Example 392] , thanks.
Response: 4

Prompt: Also need O=C1CCCCc2c(Cl)cc3[nH]ncc3c2-c2ncc3c(nc(OC[C@@]45CCCN4C[C@H](F)C5)nc3c2F)N2CC[C@H]3[C@@H](C2)N1CC3(F)F (single isomer, unassigned) [Example 402] , thanks.
Response: 46

Prompt: Also need Fc1c2ncc3c(nc(OC[C@@]45CCCN4C[C@H](F)C5)nc13)N1CCC[C@H](C1)c1cnc(o1)CCCc1c(Cl)cc3[nH]ncc3c1-2 [Example 387] , thanks.
Response: 4

Prompt: Also need Fc1c2ncc3c(nc(OC[C@@]45CCCN4C[C@H](F)C5)nc13)N1CCC[C@@H](C1)c1cnc(o1)CCCc1c(Cl)cc3[nH]ncc3c1-2 [Example 386] , thanks.
Response: 1810

Prompt: Also need O[C@H]1C[C@H]2COCCCCc3c(Cl)cc4[nH]ncc4c3-c3ncc4c(nc(OC[C@@]56CCCN5C[C@H](F)C6)nc4c3F)N(C1)C2 [Example 407] , thanks.
Response: 1

Prompt: Also need O=C1CCCCc2c(Cl)cc3[nH]ncc3c2-c2ncc3c(nc(OC[C@@]45CCCN4C[C@H](F)C5)nc3c2F)N2CCOCC(C2)C1O (mixture of isomers) [Example 384] , thanks.
Response: 6

Prompt: Also need O[C@]12C[C@@]3(CCCN(C3)c3nc(OC[C@@]45CCCN4C[C@H](F)C5)nc4c(F)c(ncc34)-c3c(c(Cl)cc4[nH]ncc34)CCc3cnc1o3)C2 [Example 396] , thanks.
Response: 3

Prompt: Also need Fc1c2ncc3c(nc(OC[C@@]45CCCN4C[C@H](F)C5)nc13)N1CCO[C@H](C1)c1coc(n1)CCCc1c(Cl)cc3[nH]ncc3c1-2 [Example 390] , thanks.
Response: 3

Prompt: Also need Fc1c2ncc3c(nc(OC[C@@]45CCCN4C[C@H](F)C5)nc13)N1CCOC[C@H](Cc3ncc(o3)CCc3c(Cl)cc4[nH]ncc4c3-2)C1 (single isomer, unassigned) [Example 375] , thanks.
Response: 15

Prompt: Also need Cc1cc2[nH]ncc2c2c1CCc1cnc(o1)[C@@H](O)[C@@H]1CCCN(C1)c1nc(OC[C@@]34CCCN3C[C@H](F)C4)nc3c(F)c-2ncc13 [Example 373] , thanks.
Response: 3

This collection of values is drawn from patent US20240294551A1.
